System: P388 leukemia ip, CD2F1 mice, survival T/C
Assay: NCI In Vivo Anticancer Drug Screen. Data for tumor model P388 Leukemia (intraperitoneal) in CD2F1 (CDF1) mice
Details: endpoint: median survival time; dose: 25.0 mg/kg/injection; schedule: Q01DX009 (ip); vehicle: saline
Experimental: The antitumor activity of compounds was measured in mice bearing transplantable tumors. Survival or tumor size were measured and the results are expressed as the measurement made in the treated group (T) divided by the measurement made in the vehicle treated control group (C). The tumor model used in this assay is P388 Leukemia (intraperitoneal) in CD2F1 (CDF1) mice
Toxic doses and inconclusive results are not listed. The calls were made as follows: active = survival T/C of 150% or more; inactive = T/C below 125% in these data.
Pick one: Y (active), N (inactive)

- compound: "C=CC(=NC(C)(C)C)Nc1c(Cl)cccc1Cl"
  labelValue: "N"

Problem: Answer briefly: the call reported for C1=CC2CCC1C1CSCC21 (centres undefined) in this assay.
Result: N

Problem: Answer briefly: the call reported for "C/C(=N\NC(=O)CCl)C(C)(C)C" in this assay.
Result: N

Problem: Answer briefly: the call reported for "Cc1ccc(S)c(S)c1" in this assay.
Result: N

Problem: Answer briefly: the call reported for "N=C(N)SCCCC(=O)O" in this assay.
Result: N

###

test system: P388 leukemia ip, CD2F1 mice, survival T/C; test: NCI In Vivo Anticancer Drug Screen. Data for tumor model P388 Leukemia (intraperitoneal) in CD2F1 (CDF1) mice; settings: endpoint: median survival time; dose: 25.0 mg/kg/injection; schedule: Q01DX009 (ip); vehicle: distilled water + Tween-80; higher = longer survival
Inconclusive results and toxic doses are left out.
assayReadout: T/C

Item: "CCOC(=O)c1ccc(NC(=O)NC2=NCCS2)cc1" | T/C: 93 % of control

Item: "Cc1ccc(S(=O)(=O)NC(=O)Nc2nccs2)cc1" | T/C: 92 % of control

Item: "CCc1nc(N)nc(N)c1-c1ccc(Cl)c(NC(C)=O)c1" | T/C: 88 % of control

Item: "CCOC(=O)c1nc(OCC)nc(OCC)c1I" | T/C: 107 % of control

###

system: P388 leukemia ip, CD2F1 mice, survival T/C; test: NCI In Vivo Anticancer Drug Screen. Data for tumor model P388 Leukemia (intraperitoneal) in CD2F1 (CDF1) mice; conditions: endpoint: median survival time; dose: 60.0 mg/kg/injection; schedule: Q01DX005 (ip); vehicle: Klucel (hydroxypropylcellulose) (HPC); higher = longer survival
Inconclusive results and toxic doses are left out.
assayReadout: T/C

- compound: "N#Cc1nnc2cc(-c3ccccc3)nn2c1C1CC1"
  T/C: "96 % of control"
- compound: "O=C(CCCC(=O)Nc1ccc2[nH]c3ccccc3c(=O)c2c1)Nc1ccc2[nH]c3ccccc3c(=O)c2c1"
  T/C: "92 % of control"
- compound: "OCC1OC(N(O)c2ccc(Oc3c(Cl)cc(Cl)cc3Cl)cc2)C(O)C(O)C1O (stereo unspecified)"
  T/C: "100 % of control"
- compound: "O=C1Nc2c(cccc2-c2ccccc2)C(=O)C1(O)c1ccccc1 (stereo unspecified)"
  T/C: "97 % of control"

Item: "CC(C)(C)OC(=O)CS(=O)(=O)Nc1ccccc1O" | T/C: 106 % of control

Item: "CN(C)c1ccc(SC(=S)NCc2ccccc2)cc1" | T/C: 88 % of control

Item: CCCCCCCCCCCCCCOC(=O)C(N)Cc1ccc(O)cc1 (stereo unspecified) | T/C: 100 % of control

Item: CC(C)CCCC(C)C1CCC2C3CCC4CCC=CC4(C)C3CCC12C (stereo unspecified) | T/C: 90 % of control

Item: "O=c1[nH]c2cc(Cl)ccc2nc1/C=C(\O)c1ccc([N+](=O)[O-])cc1" | T/C: 101 % of control

Item: CC1CC[N-]C(N)N1.CC1CC[N-]C(N)N1.[Cl][Pd][Cl] (stereo unspecified) | T/C: 97 % of control

Item: "O=C(Nc1ccc(Br)cc1)Oc1ccc(Cl)cc1C(=O)c1ccccc1" | T/C: 105 % of control

###

Test system: P388 leukemia ip, CD2F1 mice, survival T/C
Assay: NCI In Vivo Anticancer Drug Screen. Data for tumor model P388 Leukemia (intraperitoneal) in CD2F1 (CDF1) mice
Settings: endpoint: median survival time; dose: 25.0 mg/kg/injection; schedule: Q01DX005 (ip); vehicle: Klucel (hydroxypropylcellulose) (HPC); higher = longer survival
Experimental: The antitumor activity of compounds was measured in mice bearing transplantable tumors. Survival or tumor size were measured and the results are expressed as the measurement made in the treated group (T) divided by the measurement made in the vehicle treated control group (C). The tumor model used in this assay is P388 Leukemia (intraperitoneal) in CD2F1 (CDF1) mice
Toxic doses and inconclusive results are not listed.
Property: T/C; scope: individual compounds

- compound: "CC1(C)N=C(N)N=C(N)N1CCCCc1ccccc1"
  measuredResult: "118 % of control"
- compound: "Nc1nc(C[P+](c2ccccc2)(c2ccccc2)c2ccccc2)c(CCCCc2ccccc2)c(=O)[nH]1"
  measuredResult: "101 % of control"
- compound: "c1ccc2c(c1)Nc1ccccc1O2"
  measuredResult: "98 % of control"
- compound: "COC(=O)/C(C#N)=C/c1cc(OC)c(O)cc1Br"
  measuredResult: "104 % of control"
- compound: "CC(=O)Nc1ccc(Cl)cc1C(Cl)c1ccccc1 (stereo not given)"
  measuredResult: "118 % of control"
- compound: "COc1cccc2c1C1c3ccccc3Sc3cccc(c31)O2 (stereo not given)"
  measuredResult: "98 % of control"
- compound: "CC(c1ccccc1)N1OC1(C)C (stereo not given)"
  measuredResult: "106 % of control"
- compound: "C1CN(/N=N/N2CCC2)C1"
  measuredResult: "102 % of control"
- compound: "C=C1CC(NCC(=O)OCC)=C(O)C1=O"
  measuredResult: "93 % of control"

Here is the next item to consider.
Item: "Cc1nc2ccccc2[n]1[Sn]([CH3])([CH3])[n]1c(C)nc2ccccc21" | T/C: 118 % of control

###

test system: P388 leukemia ip, CD2F1 mice, survival T/C; assay: NCI In Vivo Anticancer Drug Screen. Data for tumor model P388 Leukemia (intraperitoneal) in CD2F1 (CDF1) mice; details: endpoint: median survival time; dose: 25.0 mg/kg/injection; schedule: Q01DX009 (ip); vehicle: water
Toxic doses and inconclusive results are not listed. The calls were made as follows: active = survival T/C of 150% or more; inactive = T/C below 125% in these data.
Pick one: TRUE for active, FALSE for inactive

- molecule: "CC(=O)Nc1ccc(NN=O)cn1"
  labelValue: "FALSE"
- molecule: "COc1cccc2c1C(=O)c1c(O)c3c(c(O)c1C2=O)CC(O)(C1(O)CSC(C)=N1)CC3O (configuration not stated)"
  labelValue: "FALSE"
- molecule: "CCN(CC)CCNc1cc(C)nc2c1ccc1c2ccc2c(NCCN(CC)CC)cc(C)nc21"
  labelValue: "FALSE"

Problem: Answer briefly: the call reported for COc1cccc2c1C(=O)c1c(O)c3c(c(O)c1C2=O)CC(O)(/C(C)=N/NS(=O)(=O)c1ccc(C)cc1)CC3OC1CC(N)C(O)C(C)O1 (configuration not stated) in this assay.
Result: TRUE

Problem: Answer briefly: the call reported for CCN(CC)CCCC(C)NS(=O)(=O)c1cccc2c(N(C)C)cccc12 (configuration not stated) in this assay.
Result: FALSE

Problem: Answer briefly: the call reported for CCOCCC(=O)NCC(=O)NC1C(CO)OC(Nc2ncnc3nc[nH]c23)C(O)C1O (configuration not stated) in this assay.
Result: FALSE

Problem: Answer briefly: the call reported for "O=C1c2ccccc2C(=O)c2c(NCCNCCO)ccc(NCCNCCO)c21" in this assay.
Result: FALSE

###

Test system: P388 leukemia ip, CD2F1 mice, survival T/C
Experiment: NCI In Vivo Anticancer Drug Screen. Data for tumor model P388 Leukemia (intraperitoneal) in CD2F1 (CDF1) mice
Conditions: endpoint: median survival time; dose: 100.0 mg/kg/injection; schedule: Q01DX009 (ip); vehicle: saline with Tween-80; higher = longer survival
Experimental: The antitumor activity of compounds was measured in mice bearing transplantable tumors. Survival or tumor size were measured and the results are expressed as the measurement made in the treated group (T) divided by the measurement made in the vehicle treated control group (C). The tumor model used in this assay is P388 Leukemia (intraperitoneal) in CD2F1 (CDF1) mice
Toxic doses and inconclusive results are not listed.
assayReadout: T/C

- compound: "CC1(C)N=C(N)N=C(N)N1c1ccc(OCC(=O)Nc2ccccc2)c(Cl)c1"
  measuredResult: "109 % of control"

Item: CCCCCCCCCCCCCCCCCC(=O)CC(=O)C(F)(F)F (tested in a mixture with another compound) | T/C: 92 % of control

###

tested on: P388 leukemia ip, CD2F1 mice, survival T/C; assay: NCI In Vivo Anticancer Drug Screen. Data for tumor model P388 Leukemia (intraperitoneal) in CD2F1 (CDF1) mice; conditions: endpoint: median survival time; dose: 12.5 mg/kg/injection; schedule: Q01DX009 (ip); vehicle: saline; higher = longer survival
Toxic doses and inconclusive results are not listed.
assayReadout: T/C

Illustrative cases are given below, each with its answer.
- compound: "CC[N+]1(CC)CCCCC1"
  measuredTarget: "P388 leukemia ip, CD2F1 mice, survival T/C"
  assayReadout: "T/C"
  measuredResult: "105 % of control"
- compound: "CCOC(=O)c1ccc(N2C(=O)C=CC2=O)cc1"
  measuredTarget: "P388 leukemia ip, CD2F1 mice, survival T/C"
  assayReadout: "T/C"
  measuredResult: "96 % of control"
- compound: "NC(N)=N/N=C/C=N/N=C(N)N"
  measuredTarget: "P388 leukemia ip, CD2F1 mice, survival T/C"
  assayReadout: "T/C"
  measuredResult: "100 % of control"
- compound: "S=C(Nc1ccc(Br)cc1)SCc1ccco1"
  measuredTarget: "P388 leukemia ip, CD2F1 mice, survival T/C"
  assayReadout: "T/C"
  measuredResult: "106 % of control"
- compound: "CNc1nc(NC)nc(NC)n1"
  measuredTarget: "P388 leukemia ip, CD2F1 mice, survival T/C"
  assayReadout: "T/C"
  measuredResult: "95 % of control"

Here is the next item to consider.
Item: CC(CN)c1ccccc1 (configuration not stated) | T/C: 111 % of control
